biological target: T1, human LAP-TGFB1 Fc fusion (human); experiment: SPR pH 6.0, antigen captured on Fab 54BLH
T1 construct: also called human LAP-TGFβ1-Fc; human LAP-TGFβ-Fc isoform 1
T1 sequence (chain, as listed by the source limits assumed): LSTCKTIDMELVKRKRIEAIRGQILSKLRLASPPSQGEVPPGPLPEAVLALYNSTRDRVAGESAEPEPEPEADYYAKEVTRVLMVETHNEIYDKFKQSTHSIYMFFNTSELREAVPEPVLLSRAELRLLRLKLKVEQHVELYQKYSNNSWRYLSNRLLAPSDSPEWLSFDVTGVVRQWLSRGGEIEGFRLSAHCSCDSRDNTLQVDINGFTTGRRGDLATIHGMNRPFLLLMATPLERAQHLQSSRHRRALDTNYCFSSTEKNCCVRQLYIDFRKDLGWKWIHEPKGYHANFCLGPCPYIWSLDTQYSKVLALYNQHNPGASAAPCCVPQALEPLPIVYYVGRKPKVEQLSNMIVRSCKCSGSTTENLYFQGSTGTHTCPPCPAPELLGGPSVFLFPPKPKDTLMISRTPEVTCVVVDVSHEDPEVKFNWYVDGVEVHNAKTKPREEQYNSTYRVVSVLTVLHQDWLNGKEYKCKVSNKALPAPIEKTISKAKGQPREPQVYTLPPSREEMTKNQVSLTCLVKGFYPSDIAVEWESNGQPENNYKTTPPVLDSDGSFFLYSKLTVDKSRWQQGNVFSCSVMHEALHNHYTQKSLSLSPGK
Give Fab/mAb KD Ratio for every item shown.
Output: the number by itself.

In plain terms, 15BLM (antibody, human IgG1, kappa, L234A L235A, V domains shown, IgG1 L234A L235A D265S/kappa; also called 78BLH; 51BMD) VH: EVQLVQSGAEVKKPGASVKVSCKASGYTFTSYDMHWVRQAPGQGLEWMGRIDPQSGGIKYAQKFQGRATLTVDTSTSTAYMELSRLRSDDTAVYYCARWDYGGYFDVWGQGTLVTVSS VL: DIQMTQSPSSLSASVGDRVTITCRASQDIYNYLNWYQQKPGKAVKLLIYYTSRLETGVPSRFSGSGSGTDYTLTISSLQPEDFATYFCQQGDTLPWTFGQGTKLEIKR has a documented Fab/mAb KD Ratio of 3.2

The reported Fab/mAb KD Ratio of the binder 19BLM (antibody, human IgG1, kappa, L234A L235A, V domains shown, IgG1 L234A L235A D265S/kappa; also called 82BLH; 55BMD) VH: EVQLVQSGAEVKKPGASVKVSCKASGYTFTSYDMHWVRQAPGQGLEWMGRIDPQSGGIKYAQKFQGRATLTVDTSTSTAYMELSRLRSDDTAVYYCARYDHGGYFDVWGQGTLVTVSS VL: DIQMTQSPSSLSASVGDRVTITCRASQDIYNYLNWYQQKPGKAVKLLIYYTSYLETGVPSRFSGSGSGTDYTLTISSLQPEDFATYFCQQGDTLPWTFGQGTKLEIKR was 5.5

Per the records, this binder ( 18BLM (antibody, human IgG1, kappa, L234A L235A, V domains shown, IgG1 L234A L235A D265S/kappa; also called 81BLH; 54BMD) VH: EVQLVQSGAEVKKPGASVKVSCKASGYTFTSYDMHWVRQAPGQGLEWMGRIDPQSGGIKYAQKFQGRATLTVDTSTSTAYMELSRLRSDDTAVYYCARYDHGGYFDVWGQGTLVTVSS VL: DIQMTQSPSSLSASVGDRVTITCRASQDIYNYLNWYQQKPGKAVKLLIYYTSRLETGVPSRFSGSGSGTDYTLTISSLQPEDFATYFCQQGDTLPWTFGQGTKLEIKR ) has Fab/mAb KD Ratio equal to 1.8
